All figures here come from the supplement of paper PMC6379048.

- measurement_target: ZNF830 (UniProt Q96NB3)
- Sequence: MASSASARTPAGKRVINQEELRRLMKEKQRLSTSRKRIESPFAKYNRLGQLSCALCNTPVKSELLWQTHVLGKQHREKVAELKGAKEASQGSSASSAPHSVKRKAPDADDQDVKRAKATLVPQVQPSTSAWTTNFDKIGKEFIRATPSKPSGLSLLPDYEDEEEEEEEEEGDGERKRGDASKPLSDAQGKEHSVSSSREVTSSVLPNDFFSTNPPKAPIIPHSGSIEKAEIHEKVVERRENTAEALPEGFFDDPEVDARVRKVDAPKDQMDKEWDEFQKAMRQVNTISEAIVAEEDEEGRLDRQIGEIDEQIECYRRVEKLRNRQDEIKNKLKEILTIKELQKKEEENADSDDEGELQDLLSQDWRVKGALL
- test: Kd (EC50 corrected by depletion factor)
pKd: −log10 of the molar value.
readout_kind: pKd

1) AAUAAA
6.42
2) UAUUUAU
6.64
